- system name: T1, PyPABP2 (Plasmodium yoelii, UniProt UPI0004EF7F20 1-199)
- T1 sequence: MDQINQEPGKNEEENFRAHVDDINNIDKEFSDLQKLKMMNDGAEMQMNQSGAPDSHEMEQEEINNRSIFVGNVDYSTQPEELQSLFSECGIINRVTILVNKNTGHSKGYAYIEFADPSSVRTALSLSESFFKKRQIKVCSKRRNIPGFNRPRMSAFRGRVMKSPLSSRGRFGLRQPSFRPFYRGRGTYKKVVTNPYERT
- test summary: EMSA; apparent Kd; excess tRNA, 5 mM Mg2+; EMSA/FP: 10 mM Tris-Cl pH 7.5, 5 mM MgCl2, 55 mM KCl, 2 ug tRNA, 1 mM DTT, 0.5 U/ul SUPERase-In, 2.5% glycerol, RT 20 min; ITC: 10 mM HEPES pH 7.5, 100 mM KCl
- test parameters: protein: recombinant; tags: N-terminal GST (purified via GST); vector pSL0220 also encodes C-terminal 6xHis; single strand
parameter: Kd (nM)

* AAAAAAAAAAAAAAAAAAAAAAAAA (ssRNA) [biotin-poly(A) 25-mer] | 108
